This collection of values is drawn from patent US20060025394A1.

# experimentalSystem: ER-β (Homo sapiens)
# Sequence (Q92731 whole entry): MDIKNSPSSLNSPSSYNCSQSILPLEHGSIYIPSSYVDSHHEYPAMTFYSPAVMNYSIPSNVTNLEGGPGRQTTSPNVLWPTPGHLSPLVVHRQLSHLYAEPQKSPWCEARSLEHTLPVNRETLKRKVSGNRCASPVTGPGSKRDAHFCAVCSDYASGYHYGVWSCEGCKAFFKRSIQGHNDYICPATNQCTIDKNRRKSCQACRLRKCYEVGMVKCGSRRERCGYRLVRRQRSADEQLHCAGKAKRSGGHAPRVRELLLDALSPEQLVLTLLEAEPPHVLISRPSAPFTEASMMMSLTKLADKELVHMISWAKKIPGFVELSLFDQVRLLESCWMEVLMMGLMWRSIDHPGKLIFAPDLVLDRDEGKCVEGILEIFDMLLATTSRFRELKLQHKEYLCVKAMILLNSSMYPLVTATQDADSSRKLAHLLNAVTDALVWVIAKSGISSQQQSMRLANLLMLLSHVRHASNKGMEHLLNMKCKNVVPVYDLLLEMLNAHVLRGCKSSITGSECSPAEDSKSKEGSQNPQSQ
# procedureText: Estrogen receptor relative binding affinity assay, fluorescence polarization, ER-β
# studyConditions: fluorescence polarization, 25° C., 2 hours
resultType: EC50 (nM)

>  <compound>
C[C@]12CC[C@@H]3c4ccc(O)cc4CC[C@H]3[C@@H]1CC[C@@]2(O)/C=C\c1ccc(N)cc1 [APVE2]

>  <resultType>
EC50

>  <valueObserved>
250

$$$$

----------
# System: DU-145
# procedureText: Cytotoxicity testing (Example 7), MTS, DU-145
# Type: cell-based
# studyConditions: Table 4 comparative study; five days, 1 mM, MTS
# Procedure: Cytotoxicity Studies were done in DU-145 and MCF-7 Cells. […] We set out to test the efficacy of these compounds based on known affinities for ER-α previously reported. Cells were treated for five days with 1 mM of each compound in a defined media. Cell number was estimated by the MTS method. Similar studies were carried out in the MCF-7 cell line known to express both ER-α and -β, and display proliferative properties in the presence of classic estrogens.
# label = 1 (yes) if DU145 % Cell# < 90% else 0 (no)

>  <molecule>
CC/C(=C(\c1ccccc1)c1ccc(OCCN(C)C)cc1)c1ccccc1 [Compound 27, ICI 47, 699, reference compound]

>  <experimentalSystem>
DU-145

>  <classAssignment>
1 (yes)

$$$$
>  <molecule>
COc1ccc2c(c1)CCC(c1ccccc1)=C2c1ccc(OCCN2CCCC2)cc1.Cl [Compound 34, 4-11, 100A, reference compound]

>  <experimentalSystem>
DU-145

>  <classAssignment>
1 (yes)

$$$$
>  <molecule>
CC/C(=C(\c1ccccc1)c1ccc(OCCN(C)C)cc1)c1ccccc1 [Compound 33, Z-TAM, reference compound]

>  <experimentalSystem>
DU-145

>  <classAssignment>
1 (yes)

$$$$
>  <molecule>
C#C[C@]1(O)CC[C@H]2[C@@H]3CCc4cc(O)ccc4[C@H]3[C@H](OC)C[C@@]21C [Compound 37, RU16117, reference compound]

>  <experimentalSystem>
DU-145

>  <classAssignment>
0 (no)

$$$$
>  <molecule>
CC/C(=C(\c1ccccc1)c1ccc(OCCN(C)C)cc1)c1ccccc1.O=C(O)CC(O)(CC(=O)O)C(=O)O [Compound 30, TAM Citr, reference compound]

>  <experimentalSystem>
DU-145

>  <classAssignment>
1 (yes)

$$$$

----------
# System: MCF-7
# procedureText: Cytotoxicity testing (Example 7), MTS, MCF-7
# Assay type: cell-based
# studyConditions: Table 4 comparative study, five days, 1 mM
Label scheme, based on MCF-7 % Cell#: range A (below 30%), range B (30% to below 90%), range C (90% or more)

>  <molecule>
C[C@]12CC[C@@H]3c4ccc(O)cc4C[C@@H](CCCCCCCCC[S+]([O-])CCCC(F)(F)C(F)(F)F)[C@H]3[C@@H]1CC[C@@H]2O (some centres unmarked) [Compound 32, ICI-182780, reference compound]

>  <classAssignment>
range B

$$$$
>  <molecule>
C[C@]1(O)CC[C@H]2[C@@H]3CCC4=CC(=O)CCC4=C3C=C[C@@]21C [Compound 29, RU 1881, reference compound]

>  <classAssignment>
range C

$$$$
>  <molecule>
CC/C(=C(\c1ccccc1)c1ccc(OCCN(C)C)cc1)c1ccccc1 [Compound 27, ICI 47, 699, reference compound]

>  <classAssignment>
range A

$$$$
>  <molecule>
CC/C(=C(\c1ccccc1)c1ccc(OCCN(C)C)cc1)c1ccccc1 [Compound 33, Z-TAM, reference compound]

>  <classAssignment>
range A

$$$$
>  <molecule>
C[C@]12C[C@H](c3ccc(OCCCCCS(=O)(=O)CCCC(F)(F)C(F)(F)F)cc3)[C@@H]3c4ccc(O)cc4CC[C@H]3[C@@H]1CC[C@@H]2O [Compound 26, RU 58668, reference compound]

>  <classAssignment>
range B

$$$$
>  <molecule>
C#C[C@]1(O)CC[C@H]2[C@@H]3CCC4=Cc5oncc5C[C@]4(C)[C@H]3CC[C@@]21C [Compound 35, Danazol, reference compound]

>  <classAssignment>
range C

$$$$
>  <molecule>
C#C[C@]1(O)CC[C@H]2[C@@H]3CCc4cc(O)ccc4[C@H]3[C@H](OC)C[C@@]21C [Compound 37, RU16117, reference compound]

>  <classAssignment>
range C

$$$$
>  <molecule>
CC/C(=C(\c1ccccc1)c1ccc(OCCN(C)C)cc1)c1ccccc1.O=C(O)CC(O)(CC(=O)O)C(=O)O [Compound 30, TAM Citr, reference compound]

>  <classAssignment>
range B

$$$$
>  <molecule>
CN(C)CCOc1ccc([C@H]2C[C@]3(C)[C@@H](O)CC[C@H]3[C@@H]3CCc4cc(O)ccc4[C@H]32)cc1 [Compound 31, RU 39411, reference compound]

>  <classAssignment>
range C

$$$$
>  <molecule>
COc1ccc2c(c1)CCC(c1ccccc1)=C2c1ccc(OCCN2CCCC2)cc1.Cl [Compound 34, 4-11, 100A, reference compound]

>  <classAssignment>
range B

$$$$
